studySystem: MAL^TIR (Homo sapiens)
Construct: MAL (residues 79–221); 6xHis; made in house; host or cells: E. coli BL21 (DE3)
Sequence (P58753 79-221): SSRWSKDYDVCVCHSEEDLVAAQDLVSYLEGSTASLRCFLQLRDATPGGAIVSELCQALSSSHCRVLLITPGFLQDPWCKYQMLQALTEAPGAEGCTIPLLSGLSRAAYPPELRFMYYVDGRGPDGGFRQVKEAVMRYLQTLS
measurementDescription: T‐Surf phage library (P8 and P3) selection against MAL^TIR, four rounds, NGS read counts
Format: binding
protocolConditions: P8 library, selection against MAL TIR; rank by count after grouping
Method: T‐Surf libraries were screened against the immobilized TIR domains of two major human TLR adaptor proteins, MAL^TIR and MyD88^TIR, allowing cross‐species selection of TIR‐binding motifs with 190 946 TIR‐derived peptides in a single binding assay (Scheme 1). Enriched phage pools from the fourth round of selection were analyzed using NGS after barcoding the peptide‐coding regions of the phage pools. […]
Reported P8_MAL Rank (after) values are given for each entry in this list.
Number only, please.

Would you please look over these solved cases?
seqString	P8_MAL Rank (after)
AFLYTFLINLTHKPTF	228
WFLFTVRSATYTMSPA	220

Turning to the following sequence.
Report measured P8_MAL Rank (after); entry is `LFFWGSLRQLLRNDDG`
260

Values were extracted from paper PMC11714206.
